TARGET_OR_TEST_SYSTEM: Recombinant human P450 27A1 (Homo sapiens, UniProt Q02318)
Construct: made in house; host or cells: E. coli
Sequence (Q02318 34-531): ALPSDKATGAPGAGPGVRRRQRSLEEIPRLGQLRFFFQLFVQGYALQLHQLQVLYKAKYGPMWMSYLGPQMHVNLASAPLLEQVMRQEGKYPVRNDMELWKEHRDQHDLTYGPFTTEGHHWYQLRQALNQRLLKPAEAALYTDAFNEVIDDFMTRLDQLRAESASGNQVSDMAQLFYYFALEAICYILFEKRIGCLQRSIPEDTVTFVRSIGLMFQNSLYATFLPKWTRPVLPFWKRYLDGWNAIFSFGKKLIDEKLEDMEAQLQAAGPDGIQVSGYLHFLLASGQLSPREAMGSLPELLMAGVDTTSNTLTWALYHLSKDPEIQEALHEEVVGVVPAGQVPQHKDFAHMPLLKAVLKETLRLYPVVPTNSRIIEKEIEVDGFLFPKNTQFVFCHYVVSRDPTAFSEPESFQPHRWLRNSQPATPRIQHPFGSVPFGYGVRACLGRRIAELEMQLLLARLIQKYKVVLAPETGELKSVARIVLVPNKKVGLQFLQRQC
METHOD_DESCRIPTION: P450 27A1 enzyme incubation: rate of 27-diol formation (GLC-MS)
Assay type: biochemical
TEST_CONTEXT: 0-2.5 min; 25 nmol substrate, 37° C.
Measured Synthesis rate of the 27-diol metabolite by item
Write the value in ng/min as a bare number.

Solved cases below.
COMPOUND | Synthesis rate of the 27-diol metabolite [ng/min]
CC(C)CCC[C@@H](C)[C@H]1CC[C@H]2C3=CC=C4C[C@@H](O)CC[C@]4(C)[C@H]3CC[C@]12C [7-Dehydrocholesterol] | 24
CC(C)CCC[C@@H](C)[C@H]1CC[C@H]2[C@@H]3CC=C4C[C@@H](O)CC[C@]4(C)[C@H]3CC[C@]12C | 80
CC(C)=CCC[C@@H](C)[C@H]1CC[C@H]2C3=C(CC[C@]12C)[C@@]1(C)CC[C@H](O)C[C@@H]1CC3 | 9

Let us move to another entry and its Synthesis rate of the 27-diol metabolite.
Task item: Fetch value of Synthesis rate of the 27-diol metabolite on Recombinant human P450 27A1 (Homo sapiens, UniProt Q02318) for CC(C)=CCC[C@@H](C)[C@H]1CC[C@H]2[C@@H]3CC=C4C[C@@H](O)CC[C@]4(C)[C@H]3CC[C@]12C .
Reply: 3

* * *

TARGET_OR_TEST_SYSTEM: Recombinant human P450 27A1 (Homo sapiens)
Construct: made in house; host or cells: E. coli
METHOD_DESCRIPTION: P450 27A1 enzyme incubation: rate of 27-diol formation (GLC-MS)
Type: biochemical
TEST_CONTEXT: 5.0-10 min; 25 nmol substrate, 37° C.
QUANTITY_NAME: Synthesis rate of the 27-diol metabolite

COMPOUND | VALUE_REPORTED
CC(C)=CCC[C@@H](C)[C@H]1CC[C@H]2[C@@H]3CC=C4C[C@@H](O)CC[C@]4(C)[C@H]3CC[C@]12C | 9 ng/min
CC(C)CCC[C@@H](C)[C@H]1CC[C@H]2[C@@H]3CC=C4C[C@@H](O)CC[C@]4(C)[C@H]3CC[C@]12C | 53 ng/min
CC(C)CCC[C@@H](C)[C@H]1CC[C@H]2C3=CC=C4C[C@@H](O)CC[C@]4(C)[C@H]3CC[C@]12C [7-Dehydrocholesterol] | 11 ng/min

Let us move to another entry and its Synthesis rate of the 27-diol metabolite.
Task item: Give the measured Synthesis rate of the 27-diol metabolite for CC(C)=CCC[C@@H](C)[C@H]1CC[C@H]2C3=C(CC[C@]12C)[C@@]1(C)CC[C@H](O)C[C@@H]1CC3
Reply: 10 ng/min

// provenance: patent US8741812B2
